- SYSTEM_TESTED: T1, RSV F glycoprotein (NUF4) (respiratory syncytial virus)
- T1 chain 1: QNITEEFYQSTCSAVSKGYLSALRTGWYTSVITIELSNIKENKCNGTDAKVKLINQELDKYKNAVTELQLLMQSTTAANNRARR
- T1 chain 2: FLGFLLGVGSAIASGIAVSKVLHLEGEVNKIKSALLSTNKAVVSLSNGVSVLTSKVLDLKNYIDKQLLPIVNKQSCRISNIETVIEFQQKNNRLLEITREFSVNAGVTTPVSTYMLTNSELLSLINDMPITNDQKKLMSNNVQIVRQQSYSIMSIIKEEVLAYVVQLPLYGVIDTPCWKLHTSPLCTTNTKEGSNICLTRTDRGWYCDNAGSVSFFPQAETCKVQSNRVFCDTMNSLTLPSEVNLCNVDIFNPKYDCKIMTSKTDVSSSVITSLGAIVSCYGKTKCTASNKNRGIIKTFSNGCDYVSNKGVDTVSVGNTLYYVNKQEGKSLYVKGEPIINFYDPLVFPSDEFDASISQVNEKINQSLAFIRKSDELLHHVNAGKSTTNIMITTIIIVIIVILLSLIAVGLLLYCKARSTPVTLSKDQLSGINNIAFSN
- EXPERIMENTAL_DETAILS: SPR (BIAcore), mAb vs NUF4 (1:1)
pKd: −log10 of the molar value.
Overview of reported pKd across a group of binders:
PROPERTY_MEASURED: pKd

BINDER: A4B4 IgG (antibody, V domains shown) VH: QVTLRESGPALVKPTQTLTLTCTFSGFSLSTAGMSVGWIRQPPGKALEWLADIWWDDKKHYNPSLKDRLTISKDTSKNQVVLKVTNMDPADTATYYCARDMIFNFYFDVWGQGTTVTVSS VL: DIQMTQSPSTLSASVGDRVTITCSASSRVGYMHWYQQKPGKAPKLLIYDTFFLDSGVPSRFSGSGSGTEFTLTISSLQPDDFATYYCFQGSGYPFTFGGGTKVEIKR
MEASURED_VALUE: 9.24
--
BINDER: A13c4 IgG (antibody, V domains shown) VH: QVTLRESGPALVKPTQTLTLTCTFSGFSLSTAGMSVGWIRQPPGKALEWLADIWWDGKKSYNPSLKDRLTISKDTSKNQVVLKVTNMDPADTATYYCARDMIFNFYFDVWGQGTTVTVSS VL: DIQMTQSPSTLSASVGDRVTITCSLSSRVGYMHWYQQKPGKAPKLLIYDTMYQSSGVPSRFSGSGSGTEFTLTISSLQPDDFATYYCFQGSGYPFTFGGGTKVEIKR
MEASURED_VALUE: 9.12
--
BINDER: P11d4 IgG (antibody, V domains shown) VH: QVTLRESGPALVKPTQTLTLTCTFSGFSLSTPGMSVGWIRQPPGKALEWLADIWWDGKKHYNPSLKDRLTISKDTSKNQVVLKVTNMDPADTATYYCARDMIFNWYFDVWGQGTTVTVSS VL: DIQMTQSPSTLSASVGDRVTITCSPSSRVGYMHWYQQKPGKAPKLLIYDTMRLASGVPSRFSGSGSGTEFTLTISSLQPDDFATYYCFQGSGYPFTFGGGTKVEIKR
MEASURED_VALUE: 9.07
